Value source: PubChem BioAssay (NCI)

- Tested on: MOLT-4 leukemia
- measurement-notes: NCI-60 one-dose screen, 48 h
- assay-context: 10 µM unless noted
This is part of a sample that, as a whole, favours compounds with a hit. Of some 83,000 tested, about 20% had one in any assay. Activity calls are given as the source filed them. How the source made its calls: active means growth percent below 10; inactive means the rest.
Entry note: the call must match one of TRUE (active), FALSE (inactive)

Problem: State the result this test recorded for `Cc1cc(C(=O)NN)c(C#N)c(=O)[nH]1` .
Result: FALSE

Problem: Also need `c1ccc2c(NCCCN3CCN(CCCNc4c5ccccc5nc5ccccc45)CC3)c3ccccc3nc2c1` , thanks.
Result: TRUE

Problem: Also need `NC(=O)N1CCOCC1` , thanks.
Result: FALSE

Problem: Also need `O=c1cc(Cl)nc2ccccn12` , thanks.
Result: FALSE

Problem: Also need CC(C)(C)CC1(C)NC(=O)NC1=O (centres undefined) , thanks.
Result: FALSE

Problem: Also need `CCOP(=O)(NC(c1ccccc1)c1ccccc1)OCC` , thanks.
Result: FALSE

Problem: Also need `C/C(=N\N=C(/C)c1cccc([N+](=O)[O-])c1)c1cccc([N+](=O)[O-])c1` , thanks.
Result: FALSE

Problem: Also need NNc1ncnc2c1ncn2C1OC(CO)C(O)C1O (centres undefined) , thanks.
Result: FALSE

Problem: Also need OC(CBr)CCBr (centres undefined) , thanks.
Result: FALSE

Problem: Also need `NCCCN1CCCC1=O` , thanks.
Result: FALSE

Problem: Also need `CSc1nc2[nH]ncc2c(=O)[nH]1` , thanks.
Result: FALSE

Problem: Also need `C=CC(C)(C)n1cc(C2=C(O)C(=O)C(c3cn(C(C)(C)C=C)c4ccccc34)=C(O)C2=O)c2ccccc21` , thanks.
Result: FALSE

Problem: Also need `NNC(=O)CCCCl` , thanks.
Result: FALSE

Problem: Also need C=CC(=O)OC1CCC(C(C)(C)CC)CC1 (centres undefined) , thanks.
Result: FALSE

Problem: Also need `Cc1ccc(C)c(CCO)c1` , thanks.
Result: FALSE

Problem: Also need `CC(=O)O[C@H]1CC[C@]2(C)C3=C(C(=O)C[C@H]2C1(C)C)[C@]1(C)CC[C@H]([C@H](C)CCC(=O)O)[C@@]1(C)CC3=O` , thanks.
Result: FALSE

Problem: Also need `CC(C)=CCC[C@@H](C)[C@H]1CC[C@@]2(C)C3=C(CC[C@]12C)[C@@]1(C)CC[C@H](O)C(C)(C)[C@@H]1CC3` , thanks.
Result: FALSE

Problem: Also need `CCCCNC(=O)c1ccc(OCC)cc1` , thanks.
Result: FALSE

Problem: Also need `CS(=O)(=O)c1ccc(/C=C\C(=O)O)cc1` , thanks.
Result: FALSE

Problem: Also need `COc1ccc(NNS(=O)(=O)O)cc1` , thanks.
Result: FALSE

Problem: Also need `COc1ccc2c(Cl)cc(NC(=O)Nc3c(C)cccc3C)nc2c1` , thanks.
Result: FALSE

Problem: Also need `O=C(O)c1ccc([N+](=O)[O-])cc1S(=O)(=O)O` , thanks.
Result: FALSE

Problem: Also need `N#Cc1ccc(OC(=O)Nc2cc(Cl)cc(Cl)c2)cc1` , thanks.
Result: TRUE

Problem: Also need `O=C(CCCl)OCCOc1ccccc1` , thanks.
Result: FALSE

Problem: Also need `Nc1cc2c(cc1Cl)C(=O)c1ccccc1C2=O` , thanks.
Result: FALSE

Problem: Also need `COc1ccc(C)cc1NC(=O)SC(C)C` , thanks.
Result: FALSE

Problem: Also need C=COC(=O)CCOCC(CC)CCCC (centres undefined) , thanks.
Result: FALSE

Problem: Also need `S=C(Sc1ccc(Cl)cc1)Sc1ccc(Cl)cc1` , thanks.
Result: TRUE

Problem: Also need `CCCCCC#CC(=O)O` , thanks.
Result: FALSE

Problem: Also need `CC1(C)OC(=O)CC1=O` , thanks.
Result: FALSE

Problem: Also need `N#CC1(O)CCCCC1` , thanks.
Result: FALSE

Problem: Also need `CCN(CC)CCN1CNC(=S)NC1` , thanks.
Result: FALSE

Problem: Also need `CN(CCCN(C)CCC1CCCCC1)CCC1CCCCC1` , thanks.
Result: FALSE

Problem: Also need `COc1cc(C(=O)NC(=S)NCc2ccncc2)cc(OC)c1OC` , thanks.
Result: FALSE

Problem: Also need `O=[N+]([O-])c1c(Cl)ncnc1Cl` , thanks.
Result: FALSE

Problem: Also need `Cc1cc2c3ccc(C)[n+](C)c3ccc2n1C` , thanks.
Result: FALSE

Problem: Also need `Cc1ccnc(Nc2nc3ccccc3[nH]2)n1` , thanks.
Result: FALSE

Problem: Also need `CN(C)c1ccc2nc3ccc(=[N+](C)C)cc-3oc2c1` , thanks.
Result: TRUE

Problem: Also need `CC(=O)Nc1ncc(S(=O)(=O)c2ccc([N+](=O)[O-])cc2)s1` , thanks.
Result: FALSE

Problem: Also need `CC(=O)[C@@]1(O)CC[C@H]2[C@@H]3CC[C@@H]4CC(=O)CC[C@]4(C)[C@H]3[C@@H](O)C[C@@]21C` , thanks.
Result: FALSE

Problem: Also need `C=CCc1cc(OC)c(OC)c(OC)c1` , thanks.
Result: FALSE

Problem: Also need `COC(=O)c1cccc([N+](=O)[O-])c1` , thanks.
Result: FALSE

Problem: Also need CC12CCC3c4ccc(O)cc4CCC3C1CCC2=O (centres undefined) , thanks.
Result: FALSE

Problem: Also need `CC(=O)c1cccc(NS(=O)(=O)c2ccc(C)cc2)c1` , thanks.
Result: FALSE

Problem: Also need OCC(O)COc1ccc(Cl)cc1Cl (centres undefined) , thanks.
Result: FALSE

Problem: Also need `CC(C)N(C(=O)c1ccccc1)C(C)C` , thanks.
Result: FALSE

Problem: Also need `Nc1cc(N)ncn1` , thanks.
Result: FALSE

Problem: Also need `OC(CCN1CCCCC1)(c1ccccc1)c1ccccc1` , thanks.
Result: FALSE

Problem: Also need Oc1ccc(CCC2CCNc3ccccc32)cc1 (centres undefined) , thanks.
Result: FALSE

Problem: Also need `COC(=O)c1ccccc1C(=O)c1c(C)cc(C)cc1C` , thanks.
Result: FALSE

Problem: Also need `Cc1onc(-c2ccccc2Cl)c1C(=O)Cl` , thanks.
Result: FALSE

Problem: Also need `NNc1ncccn1` , thanks.
Result: FALSE

Problem: Also need `C=CCc1cc(OC)c(O)c(OC)c1` , thanks.
Result: FALSE

Problem: Also need `O=C(O)c1ccccc1Cc1ccc2c(c1)CCCC2` , thanks.
Result: FALSE
